- EXPERIMENT_SUMMARY: protein stability index of a GFP-peptide fusion (GPS, HEK-293T) (PSI 1-6); higher = more stable;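 further: 24-mer peptide tiles fused after GFP, lentivirally expressed, FACS-sorted into six equal bins by GFP/DsRed ratio, decoded by Illumina sequencing, PSI is the read-weighted mean bin number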
- TEST_PARAMETERS: treatment: DMSO; c terminus: a fixed tail appended

[
  {
    "CHAIN": "LWEKLAKQGELPREVRRAQARLLN [NOP53]",
    "protein stability index": 2.78
  },
  {
    "CHAIN": "FLMLAVSLTVPLLGAMMLLESPID [APMAP]",
    "protein stability index": 3.52
  },
  {
    "CHAIN": "LAVYHRLWDRAYVRLKPALQRLDF [RETREG3]",
    "protein stability index": 2.31
  },
  {
    "CHAIN": "FGRYLEHLEVKFMNPYNAVLTKKF [FBXO39]",
    "protein stability index": 2.24
  },
  {
    "CHAIN": "LPWLSLRALKFRERDALEAVFRFW [DNAAF3]",
    "protein stability index": 2.46
  },
  {
    "CHAIN": "MQRGARLPAEVAGLSQVLLRGGGQ [POMT2]",
    "protein stability index": 3.6
  },
  {
    "CHAIN": "IYVIGGYDGRSRLSSVECLDYTAD [KLHL12]",
    "protein stability index": 2.86
  },
  {
    "CHAIN": "SHFVFVIEVKTKGGSKYLIYRRYR [NCF4]",
    "protein stability index": 2.81
  },
  {
    "CHAIN": "TTVPEVEPPQDSHSRKTVLIKTIE [PRPH]",
    "protein stability index": 4.58
  },
  {
    "CHAIN": "YYERVLKRKTFNKVLGHVNNILIS [GDAP1]",
    "protein stability index": 2.35
  },
  {
    "CHAIN": "YLDETCTCFVRDGKTYCKRDYVRL [ISL2]",
    "protein stability index": 2.68
  },
  {
    "CHAIN": "SYNACGVLSHIMFDGPEAWGVCEP [ZER1]",
    "protein stability index": 2.13
  },
  {
    "CHAIN": "RKDKDVARLQDFQELELVLMISEN [ANKRD40]",
    "protein stability index": 2.1
  }
]

----------
protein stability index listing for selected sequences.
- EXPERIMENT_SUMMARY: protein stability index of a GFP-peptide fusion (GPS, HEK-293T) (PSI 1-6); higher = more stable
- TEST_PARAMETERS: treatment: DMSO; c terminus: a fixed tail appended
EXPERIMENTAL_ENDPOINT: protein stability index

[
  {
    "CHAIN": "LVACCLADIFRIYAPEAPYTSPDK [PDS5B]",
    "EXPERIMENTAL_ENDPOINT": "protein stability index",
    "ENDPOINT_RESULT": 3.3
  },
  {
    "CHAIN": "QGWMNLLNMAKKSVDIVSSHWDLN [PLD5]",
    "EXPERIMENTAL_ENDPOINT": "protein stability index",
    "ENDPOINT_RESULT": 2.9
  },
  {
    "CHAIN": "RHTSPVFSPANPESSMEDCLAHLG [BCL2L13]",
    "EXPERIMENTAL_ENDPOINT": "protein stability index",
    "ENDPOINT_RESULT": 4.24
  },
  {
    "CHAIN": "HSKQYRCLSFQPECSMKLTPLVLE [VDR]",
    "EXPERIMENTAL_ENDPOINT": "protein stability index",
    "ENDPOINT_RESULT": 2.5
  },
  {
    "CHAIN": "VNSYYSSPAQQVPKNPALEAFLAQ [TOR1AIP2]",
    "EXPERIMENTAL_ENDPOINT": "protein stability index",
    "ENDPOINT_RESULT": 3.45
  },
  {
    "CHAIN": "DGQYMGVAFRGLKGKKLYPVVSAV [SPSB1]",
    "EXPERIMENTAL_ENDPOINT": "protein stability index",
    "ENDPOINT_RESULT": 2.36
  },
  {
    "CHAIN": "YILLVGYPPFWDEDQHKLYQQIKA [CAMK2B]",
    "EXPERIMENTAL_ENDPOINT": "protein stability index",
    "ENDPOINT_RESULT": 2.49
  },
  {
    "CHAIN": "DFSVSLKASGKNKHFKVQLVDNVY [NCK2]",
    "EXPERIMENTAL_ENDPOINT": "protein stability index",
    "ENDPOINT_RESULT": 2.27
  },
  {
    "CHAIN": "HKVLELTAENERLQKKVEQLSREL [CEBPB]",
    "EXPERIMENTAL_ENDPOINT": "protein stability index",
    "ENDPOINT_RESULT": 5.76
  },
  {
    "CHAIN": "QGDKAIREQGPREQEPELSFLKQK [PBXIP1]",
    "EXPERIMENTAL_ENDPOINT": "protein stability index",
    "ENDPOINT_RESULT": 5.44
  },
  {
    "CHAIN": "HSGTKRDPKEDVFQQNHLFWLQNS [PHTF1]",
    "EXPERIMENTAL_ENDPOINT": "protein stability index",
    "ENDPOINT_RESULT": 3.42
  },
  {
    "CHAIN": "VAPQDQCKLTCQAQALGYYYVLEP [ADAMTS4]",
    "EXPERIMENTAL_ENDPOINT": "protein stability index",
    "ENDPOINT_RESULT": 2.58
  },
  {
    "CHAIN": "AIMCVSCICWSPFLVTMANIGING [PTGFR]",
    "EXPERIMENTAL_ENDPOINT": "protein stability index",
    "ENDPOINT_RESULT": 3.42
  }
]
